Experiment: small-molecule microarray binders of probe aLefty2, primary screen, biochemical, biotinylated probe, 635/667 nm fluorescence (AID 1094);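 also: score merges spot fluorescence near 667 nm with spot signal-to-noise ratio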
Conditions: higher = more signal
Binary call on composite z-score: 1.0 from 0.04 upward, 0.0 beneath that.

Lookup: I'd appreciate it if you could say whether CC1CC/C=C\[C@H]2OC34C=CCN(c5ccc6ccccc6c5)C(=O)[C@H]3N(C(CO)C(C)C)C(=O)[C@@H]4C2C(=O)O1 (stereo partly specified) has composite z-score at least equal to 0.04.
Found: 0.0

Lookup: Record: Cc1ccc(S[C@]2(C(=O)NCC(C)C)CC(=O)N(Cc3ccccc3Cl)[C@@H]2c2ccc(CO)cc2I)cc1
Found: 1.0

Lookup: Record: C[C@H]1C2=C3C(CC[C@H]4C(OCc5ccc(F)cc5C(F)(F)F)OC[C@](C)([C@@H]34)N(C(=O)OC(C)(C)C)C2)C(CO)C1CO (stereo partly specified)
Found: 1.0

Lookup: Record: COCCCNC(=O)[C@]1(Cc2ccccc2CN=[N+]=[N-])N=C(c2ccc(OCCCO)cc2)O[C@@H]1c1ccccc1
Found: 0.0

Lookup: Record: C=CCN1C(=O)[C@]2(CC=C)N=C(c3ccc(OCCCO)cc3)O[C@@H]2c2ccccc21
Found: 1.0

Lookup: Record: O=C(CS)NCCCCCCNC(=O)[C@H]1C[C@H]2C(=O)N[C@@H](Cc3ccccc3)C(=O)N2[C@H]1c1cccc(OCCO)c1
Found: 1.0

Lookup: Record: CC(C)N1CC=CC23O[C@@H]4C=CCOC(=O)[C@@H]4[C@H]2C(=O)N(C(C)CO)[C@@H]3C1=O (stereo partly specified)
Found: 1.0

Lookup: Record: CC(C)CN1C(=O)[C@@]2(c3ccc([N+](=O)[O-])cc3)CC(=O)N(CC34CC5CC(CC(C5)C3)C4)[C@@H]2c2ccc(CO)cc21
Found: 0.0

Lookup: Record: CCN(CC)c1ccc(N2CC=CC34O[C@@H]5/C=C\CCC(C)OC(=O)C5[C@H]3C(=O)N(CCO)[C@@H]4C2=O)cc1 (stereo partly specified)
Found: 0.0

Lookup: Record: Cc1ccc(S[C@]2(C(=O)NC3CC3)CC(=O)N(Cc3ccccc3Cl)[C@@H]2c2ccc(CO)cc2I)cc1
Found: 1.0

Lookup: Record: CC(C)(C)OC(=O)CC[C@@]1(C(=O)O)N=C(c2ccc(OCCCO)cc2)O[C@@H]1c1ccccc1
Found: 0.0

Lookup: Record: Cc1ccc(S[C@]2(C(=O)O)CC(=O)N(Cc3ccccc3Cl)[C@@H]2c2ccc(CO)cc2)cc1
Found: 0.0

Lookup: Record: C=C(/C(=C/C[C@@H](OC(=O)c1ccncc1)c1ccccc1OCCO)c1cc(C(=O)OC)ccc1OC)C(C)C
Found: 0.0

Lookup: Record: CC(C)(C)OC(=O)CC[C@]1(C(=O)NCCN2CCOCC2)N=C(c2ccc(OCCCO)cc2)O[C@H]1c1ccccc1N=[N+]=[N-]
Found: 1.0

Lookup: Record: CC=CC(O)C1C=CC2C(=O)N(C)C(=O)C2N1N1CCCCC1 (stereo unspecified)
Found: 1.0

Lookup: Record: CCC[C@@H]1C[C@@]1(CCC)[C@@H](NP(=O)(c1ccccc1)c1ccccc1)c1ccc(Cl)cc1
Found: 0.0
